Source of measurements: patent US20250002507A1

# testedSystem: Human M4 (Homo sapiens)
# Construct: expressed in transfected cells
# experimentalDetails: mAChR M4 cell-based functional assay (calcium flux, potentiation of EC20 acetylcholine response), hM4-Gqi5 CHO-K1 cells
# experimentalConditions: CHO-K1; Table 4; Human M4; % ACh maximum at 30 μM; read-out: Emax (% ACh maximum at 30 μM)
# Method: […] Calcium flux was measured using the Functional Drug Screening System (FDSS) 6000 or 7000 (Hamamatsu Corporation, Tokyo, Japan) as an increase in the fluorescent static ratio. […] Agonist activity was analyzed as a concentration-dependent increase in calcium mobilization upon compound addition. Positive allosteric modulator activity was analyzed as a concentration-dependent increase in the EC20 acetylcholine response. […]

# compound, quantityUnit, Emax at 30 µM
data = [
    ("FC(F)(F)c1cnc2c(c1)CN(c1nn3cnnc3c3c1CCCC3)CC2", "%", 63),
    ("Cc1cc2cncn2nc1N1CCc2ncc(-c3cn(C)nc3C)cc2C1", "%", 81),
    ("Cc1c(N2CCc3ncc(Oc4cccc(F)c4F)cc3C2)nn2cnnc2c1C", "%", 93),
    ("[2H]C1([2H])Cc2ncc(Nc3cc(C)ncc3F)cc2C([2H])([2H])N1c1nn2cnnc2c(C)c1C", "%", 99),
    ("Cc1c(N2CCc3ncc(N4CCO[C@H](c5ccccc5)C4)cc3C2)nn2c(C(F)(F)F)nnc2c1C", "%", 96),
    ("Cc1c(N2Cc3cc(C(F)(F)F)cnc3CC2C)nn2cnnc2c1C (stereo not shown)", "%", 96),
    ("Cc1c(N2Cc3cc(N4CCOCC4)cnc3C(C)C2)nn2cnnc2c1C (stereo not shown)", "%", 94),
    ("Cc1cc2n(n1)CCCN2c1cnc2c(c1)CN(c1nn3c(C(F)(F)F)nnc3c(C)c1C)CC2", "%", 76),
    ("Cc1c(C2CC2)c(N2CCc3ncc(N4CCO[C@H](C)C4)cc3C2)nn2cnnc12", "%", 66),
    ("Cc1c(N2CCc3ncc(Cc4ccccc4F)cc3C2)nn2cnnc2c1C", "%", 91),
    ("Cc1cc2nncn2nc1N1CCc2ncc(C(C)(O)C(F)(F)F)cc2C1 (stereo not shown)", "%", 77),
    ("Cc1c(N2CCc3ncc(N4CCOC(c5cccnc5)C4)cc3C2)nn2c(C(F)(F)F)nnc2c1C (stereo not shown)", "%", 76),
    ("Cc1cc2nnc(C(F)(F)F)n2nc1N1CCc2ncc(N3CCOC(c4cccnc4)C3)cc2C1 (stereo not shown)", "%", 80),
    ("Cc1c(N2CCc3ncc(Cc4ccccc4F)cc3C2)nn2c(C(F)(F)F)nnc2c1C", "%", 83),
    ("Cc1cc2nnc(C(F)(F)F)n2nc1N1CCc2ncc(C(F)(F)F)cc2C1", "%", 96),
    ("CCOC(=O)c1c(C)nc2c(C)c(C)c(N3CCc4ncc(C(F)(F)F)cc4C3)nn12", "%", 67),
]

---

# testedSystem: Human M4 (Homo sapiens, UniProt P08173)
# Construct: expressed in transfected cells
# Sequence (P08173 whole entry): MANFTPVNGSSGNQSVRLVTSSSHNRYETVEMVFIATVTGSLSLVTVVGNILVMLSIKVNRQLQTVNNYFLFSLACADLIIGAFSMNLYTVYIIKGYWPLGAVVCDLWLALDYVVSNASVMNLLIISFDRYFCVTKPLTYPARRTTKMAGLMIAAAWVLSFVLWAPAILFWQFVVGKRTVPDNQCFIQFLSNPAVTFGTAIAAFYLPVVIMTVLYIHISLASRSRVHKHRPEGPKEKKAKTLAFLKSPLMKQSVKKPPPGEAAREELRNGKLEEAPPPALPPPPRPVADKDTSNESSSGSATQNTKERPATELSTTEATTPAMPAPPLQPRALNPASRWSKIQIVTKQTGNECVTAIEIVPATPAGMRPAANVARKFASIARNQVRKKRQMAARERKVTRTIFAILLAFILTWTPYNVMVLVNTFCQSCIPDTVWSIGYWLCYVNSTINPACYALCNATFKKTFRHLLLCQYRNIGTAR
# experimentalDetails: mAChR M4 cell-based functional assay (calcium flux, potentiation of EC20 acetylcholine response), hM4-Gqi5 CHO-K1 cells
# experimentalConditions: hM4-Gqi5 CHO-K1 cells, calcium flux, PAM of EC20 acetylcholine; read-out: Human M4 EC50
The following compounds are shown together with reported log10 of EC50 values.
measure: log10 of EC50 (log10 of the value in nM)

# compound, log10 of EC50
records = [
    ("Cc1c(N2CCc3ncc(-c4cnn(C)c4)cc3C2)nn2cnnc2c1C [Compound 112]", 2.09),
    ("Cc1c(N2CCc3ncc(NCc4ccc(C(C)(C)O)cc4)cc3C2)nn2cnnc2c1C [Compound 17]", 2.97),
    ("Cc1cc2nccn2nc1N1CCc2ncc(-c3ccnn3C)cc2C1 [Compound 139]", 2.64),
    ("[2H]c1nnc2c(C)c(C)c(N3CCc4ncc(-c5cnn(CC6CC6)c5)cc4C3)nn12 [Compound 77]", 2.33),
    ("Cc1noc(C)c1-c1cnc2c(c1)CN(c1nn3cnnc3c(C)c1C)CC2 [Compound 10]", 2.33),
    ("Cc1c(N2CCc3ncc(Nc4cc(F)ccc4F)cc3C2)nn2c(C)nnc2c1C [Compound 84]", 2.32),
    ("CCn1cc(-c2cnc3c(c2)CN(c2nn4cnnc4c(C)c2C)CC3)cn1 [Compound 100]", 2.40),
    ("Cc1cc2nncn2nc1N1CCc2ncc(-c3cn(C)nc3C)cc2C1 [Compound 113]", 2.52),
    ("Cc1c(N2CCc3ncc(Oc4ccc(OC(F)(F)F)c(F)c4)cc3C2)nn2cnnc2c1C [Compound 6]", 3.56),
    ("Cc1cnc2c(c1)CN(c1nn3cnnc3c(C)c1C)CC2 [Compound 5]", 2.36),
    ("Cc1ncc(-c2cnc3c(c2)CN(c2nn4cnnc4c(C)c2C)CC3)cn1 [Compound 37]", 3.36),
    ("Cc1c(N2CCc3ncc(C(=O)NCc4ccc(C(C)(C)O)cc4)cc3C2)nn2cnnc2c1C [Compound 115]", 3.62),
    ("Cc1c(N2CCc3ncc(N4CCC5OCCCC5C4)cc3C2)nn2cnnc2c1C (stereo not drawn) [Compound 25]", 2.54),
    ("Cc1c(N2CCc3ncc(C(=O)NC(C)c4nccs4)cc3C2)nn2cnnc2c1C (stereo not drawn) [Compound 124]", 3.57),
    ("Cc1c(N2CCc3ncc(Nc4cc(F)ccc4F)cc3C2)nn2cnnc2c1C [Compound 32]", 1.93),
]
